Attribution: patent US20250313560A1

Molecular target: SOS1 and KRAS G12C (Homo sapiens (Human), UniProt Q07889)
Sequence (Q07889 564-1049, stated change not applied): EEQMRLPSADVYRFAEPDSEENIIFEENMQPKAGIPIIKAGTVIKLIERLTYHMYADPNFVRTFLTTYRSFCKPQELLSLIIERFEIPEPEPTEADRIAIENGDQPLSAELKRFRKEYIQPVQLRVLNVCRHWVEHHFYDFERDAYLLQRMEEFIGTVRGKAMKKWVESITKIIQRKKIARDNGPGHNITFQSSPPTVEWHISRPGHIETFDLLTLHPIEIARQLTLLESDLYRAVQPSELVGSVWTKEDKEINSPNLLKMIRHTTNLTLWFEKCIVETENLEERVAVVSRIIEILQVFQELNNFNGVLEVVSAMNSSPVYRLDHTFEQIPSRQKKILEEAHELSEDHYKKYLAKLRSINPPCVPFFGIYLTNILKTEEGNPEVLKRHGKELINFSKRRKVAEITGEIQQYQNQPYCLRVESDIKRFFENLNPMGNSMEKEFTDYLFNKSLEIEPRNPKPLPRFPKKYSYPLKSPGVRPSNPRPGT
Assay: KRAS::SOS1 AlphaScreen binding assay (KRAS G12C)
Settings: average of at least two measurements

{"columns": ["COMPOUND", "IC50 / nM"],
 "data": [
  ["C[C@@H](NC(=O)c1cc(N2CCC(N3CCCC(O)CC3)CC2)c2ncnn2c1)c1cccc(C(F)F)c1F (single isomer, unassigned) [Example E17a]", 39],
  ["C[C@@H](NC(=O)c1cc(N2CCC3(CCCCN3)CC2)c2ncnn2c1)c1cccc(C(F)F)c1F [Example E19]", 32],
  ["C[C@@H](NC(=O)c1cc(N2CCC(O)(C3CCCN3)CC2)c2ncnn2c1)c1cccc(C(F)F)c1F (single isomer, unassigned) [Example E38b]", 59],
  ["C[C@@H](O)CNC1CCN(c2cc(C(=O)N[C@H](C)c3cccc(C(F)(F)F)c3F)cn3ncnc23)CC1 [Example E39]", 53],
  ["C[C@@H](NC(=O)c1cc(N2CCC(N3CC4CC4C3CO)CC2)c2ncnn2c1)c1cccc(C(F)F)c1F (single isomer, unassigned) [Example cis-E11b]", 28],
  ["C[C@@H](NC(=O)c1cc([C@H]2CC[C@H](N3CC[C@](C)(O)C3)CC2)c2ncnn2c1)c1cccc(C(F)F)c1F [Example E59]", 42],
  ["C[C@@H](NC(=O)c1cc(N2CCC(NC3COCC3O)CC2)c2ncnn2c1)c1cccc(C(F)(F)F)c1F (single isomer, unassigned) [Example cis-E41a]", 50],
  ["CO[C@@H]1CCN(C2CCN(c3cc(C(=O)N[C@H](C)c4cccc(C(F)(F)F)c4F)cn4cnnc34)CC2)C1 [Example E75]", 65],
  ["C[C@@H](NC(=O)c1cc(N2CCC(N3CCCC(C)(O)C3)CC2)c2ncnn2c1)c1cccc(C(F)(F)F)c1F (single isomer, unassigned) [Example E47b]", 41],
  ["C[C@@H](NC(=O)c1cc(N2CCC(N3CCC4(CC4)C3)CC2)c2ncnn2c1)c1cccc(C(F)F)c1F [Example E8]", 70],
  ["C[C@@H]1C[C@@H](O)CN1[C@H]1CC[C@H](c2cc(C(=O)N[C@H](C)c3cccc(C(F)F)c3F)cn3ncnc23)CC1 [Example E62]", 22],
  ["C[C@@H](NC(=O)c1cc(N2CCC(NC3CCCC3(C)O)CC2)c2ncnn2c1)c1cccc(C(F)(F)F)c1F (single isomer, unassigned) [Example trans-E53a]", 24],
  ["C[C@@H](NC(=O)c1cc(N2CCC(N3C[C@H](O)C4(CC4)C3)CC2)c2ncnn2c1)c1cccc(C(F)F)c1F [Example E3]", 59],
  ["C[C@@H](NC(=O)c1cc(N2CCC(N3CC[C@@](C)(O)C3)CC2)c2ncnn2c1)c1cccc(C(F)F)c1F [Example E5]", 65],
  ["C[C@@H](NC(=O)c1cc(N2CCC3(CCCCN3)CC2)c2ncnn2c1)c1cccc(C(F)(F)F)c1F [Example E45]", 33],
  ["C[C@@H](NC(=O)c1cc([C@]2(O)CC[C@@H](N3CC[C@H](F)C3)CC2)c2ncnn2c1)c1cccc(C(F)F)c1F [Example E66]", 74],
  ["C[C@@H](NC(=O)c1cc(C2=CCC(N3CCC[C@H](O)C3)CC2)c2ncnn2c1)c1cccc(C(F)F)c1F (stereo partly shown) [Example E63]", 31],
  ["C[C@@H](NC(=O)c1cc(N2CCC(N(C)CC(C)(C)O)CC2)c2ncnn2c1)c1cccc(C(F)F)c1F [Example E7]", 50],
  ["Cc1nc2c([C@H]3CC[C@H](N4CCC[C@H](O)C4)CC3)cc(C(=O)N[C@H](C)c3cccc(C(F)F)c3F)cn2n1 [Example E85]", 37]
]}
